# targetEntity: rat MCH 1 receptor (rMCH1R) (Rattus norvegicus, UniProt P97639)
# Construct: expressed in transfected cells; host or cells: HEK 293 (membranes)
# experimentDescription: 125I-MCH ligand binding assay, rMCH
# cond: IC50 in the rMCH binding assay, HEK 293 membranes, 0.2 nM 125I native-MCH; 100 μM or less list
pIC50: −log10 of the molar value.
testReadout: pIC50

Find pIC50 (rat MCH 1 receptor (rMCH1R) (Rattus norvegicus, UniProt P97639)) for the entry Cc1cccc(C)c1-n1nnnc1[C@H](c1cccc(O)c1)N1CCN(C/C=C/c2ccccc2)CC1 (racemic)
≥ 4.00

====

# targetEntity: human MCH 1 receptor (hMCH1R) (Homo sapiens)
# Construct: expressed in transfected cells; host or cells: HEK 293 (membranes)
# experimentDescription: 125I-MCH ligand binding assay, hMCH
# cond: IC50 in the hMCH binding assay, HEK 293 membranes, 0.2 nM 125I native-MCH; 100 μM or less list
pIC50: −log10 of the molar value.
testReadout: pIC50

Could you tell me which pIC50 is on file for Cc1cccc(C)c1-n1nnnc1[C@H](c1cccc(O)c1)N1CCN(C/C=C/c2ccccc2)CC1 (racemic) [Compound 82] ?
≥ 4.00

====

# targetEntity: human MCH receptor (Homo sapiens, UniProt Q99705)
# Construct: expressed in transfected cells
# Sequence (Q99705 whole entry): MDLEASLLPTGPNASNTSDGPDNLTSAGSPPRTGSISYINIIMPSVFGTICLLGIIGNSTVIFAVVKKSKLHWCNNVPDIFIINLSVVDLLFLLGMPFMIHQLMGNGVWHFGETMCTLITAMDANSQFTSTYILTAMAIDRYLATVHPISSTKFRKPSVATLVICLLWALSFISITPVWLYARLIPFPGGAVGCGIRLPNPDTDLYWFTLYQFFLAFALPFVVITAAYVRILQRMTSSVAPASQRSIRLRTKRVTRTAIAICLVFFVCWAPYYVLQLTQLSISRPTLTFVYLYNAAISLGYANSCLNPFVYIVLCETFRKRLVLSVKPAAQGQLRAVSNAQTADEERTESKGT
# experimentDescription: hMCH FLIPR calcium mobilization assay
# Format: cell-based
# cond: Ki in the hMCH FLIPR assay, 100 μM or less list
testReadout: Ki

Could you tell me which Ki is on file for Cc1cccc(C)c1-n1nnnc1[C@H](c1cccc(O)c1)N1CCN(C/C=C/c2ccccc2)CC1 (racemic) [Compound 82] ?
≤ 100 µM

====

# targetEntity: human MCH 1 receptor (hMCH1R) (Homo sapiens, UniProt Q99705)
# Construct: expressed in transfected cells; host or cells: HEK 293 (membranes)
# Sequence (Q99705 whole entry): as above
# experimentDescription: 125I-MCH ligand binding assay, hMCH
testReadout: IC50

Could you tell me which IC50 is on file for Cc1cccc(C)c1-n1nnnc1C1(N2CCN(C/C=C/c3ccccc3)CC2)CCCCC1 ?
≤ 100 µM
